- Tested on: Platelet-derived growth factor receptor alpha (Homo sapiens), P16234 [T674I]
- Details: at 1 µM
# key: entry, value: inhibition
A number alone suffices; assume %.

Query: # get_value(readout='inhibition', item= CS(=O)(=O)CCNCc1cc(-c2cc3c(Nc4ccc(OCc5cccc(F)c5)c(Cl)c4)ncnc3s2)cs1 )
Result: 11.1

###

Consider the following molecules and their measured inhibition readings.
- Test system: Leucine-rich repeat serine/threonine-protein kinase 2 (Homo sapiens), Q5S007 [G2019S]
- Sequence (Q5S007 whole entry G2019S): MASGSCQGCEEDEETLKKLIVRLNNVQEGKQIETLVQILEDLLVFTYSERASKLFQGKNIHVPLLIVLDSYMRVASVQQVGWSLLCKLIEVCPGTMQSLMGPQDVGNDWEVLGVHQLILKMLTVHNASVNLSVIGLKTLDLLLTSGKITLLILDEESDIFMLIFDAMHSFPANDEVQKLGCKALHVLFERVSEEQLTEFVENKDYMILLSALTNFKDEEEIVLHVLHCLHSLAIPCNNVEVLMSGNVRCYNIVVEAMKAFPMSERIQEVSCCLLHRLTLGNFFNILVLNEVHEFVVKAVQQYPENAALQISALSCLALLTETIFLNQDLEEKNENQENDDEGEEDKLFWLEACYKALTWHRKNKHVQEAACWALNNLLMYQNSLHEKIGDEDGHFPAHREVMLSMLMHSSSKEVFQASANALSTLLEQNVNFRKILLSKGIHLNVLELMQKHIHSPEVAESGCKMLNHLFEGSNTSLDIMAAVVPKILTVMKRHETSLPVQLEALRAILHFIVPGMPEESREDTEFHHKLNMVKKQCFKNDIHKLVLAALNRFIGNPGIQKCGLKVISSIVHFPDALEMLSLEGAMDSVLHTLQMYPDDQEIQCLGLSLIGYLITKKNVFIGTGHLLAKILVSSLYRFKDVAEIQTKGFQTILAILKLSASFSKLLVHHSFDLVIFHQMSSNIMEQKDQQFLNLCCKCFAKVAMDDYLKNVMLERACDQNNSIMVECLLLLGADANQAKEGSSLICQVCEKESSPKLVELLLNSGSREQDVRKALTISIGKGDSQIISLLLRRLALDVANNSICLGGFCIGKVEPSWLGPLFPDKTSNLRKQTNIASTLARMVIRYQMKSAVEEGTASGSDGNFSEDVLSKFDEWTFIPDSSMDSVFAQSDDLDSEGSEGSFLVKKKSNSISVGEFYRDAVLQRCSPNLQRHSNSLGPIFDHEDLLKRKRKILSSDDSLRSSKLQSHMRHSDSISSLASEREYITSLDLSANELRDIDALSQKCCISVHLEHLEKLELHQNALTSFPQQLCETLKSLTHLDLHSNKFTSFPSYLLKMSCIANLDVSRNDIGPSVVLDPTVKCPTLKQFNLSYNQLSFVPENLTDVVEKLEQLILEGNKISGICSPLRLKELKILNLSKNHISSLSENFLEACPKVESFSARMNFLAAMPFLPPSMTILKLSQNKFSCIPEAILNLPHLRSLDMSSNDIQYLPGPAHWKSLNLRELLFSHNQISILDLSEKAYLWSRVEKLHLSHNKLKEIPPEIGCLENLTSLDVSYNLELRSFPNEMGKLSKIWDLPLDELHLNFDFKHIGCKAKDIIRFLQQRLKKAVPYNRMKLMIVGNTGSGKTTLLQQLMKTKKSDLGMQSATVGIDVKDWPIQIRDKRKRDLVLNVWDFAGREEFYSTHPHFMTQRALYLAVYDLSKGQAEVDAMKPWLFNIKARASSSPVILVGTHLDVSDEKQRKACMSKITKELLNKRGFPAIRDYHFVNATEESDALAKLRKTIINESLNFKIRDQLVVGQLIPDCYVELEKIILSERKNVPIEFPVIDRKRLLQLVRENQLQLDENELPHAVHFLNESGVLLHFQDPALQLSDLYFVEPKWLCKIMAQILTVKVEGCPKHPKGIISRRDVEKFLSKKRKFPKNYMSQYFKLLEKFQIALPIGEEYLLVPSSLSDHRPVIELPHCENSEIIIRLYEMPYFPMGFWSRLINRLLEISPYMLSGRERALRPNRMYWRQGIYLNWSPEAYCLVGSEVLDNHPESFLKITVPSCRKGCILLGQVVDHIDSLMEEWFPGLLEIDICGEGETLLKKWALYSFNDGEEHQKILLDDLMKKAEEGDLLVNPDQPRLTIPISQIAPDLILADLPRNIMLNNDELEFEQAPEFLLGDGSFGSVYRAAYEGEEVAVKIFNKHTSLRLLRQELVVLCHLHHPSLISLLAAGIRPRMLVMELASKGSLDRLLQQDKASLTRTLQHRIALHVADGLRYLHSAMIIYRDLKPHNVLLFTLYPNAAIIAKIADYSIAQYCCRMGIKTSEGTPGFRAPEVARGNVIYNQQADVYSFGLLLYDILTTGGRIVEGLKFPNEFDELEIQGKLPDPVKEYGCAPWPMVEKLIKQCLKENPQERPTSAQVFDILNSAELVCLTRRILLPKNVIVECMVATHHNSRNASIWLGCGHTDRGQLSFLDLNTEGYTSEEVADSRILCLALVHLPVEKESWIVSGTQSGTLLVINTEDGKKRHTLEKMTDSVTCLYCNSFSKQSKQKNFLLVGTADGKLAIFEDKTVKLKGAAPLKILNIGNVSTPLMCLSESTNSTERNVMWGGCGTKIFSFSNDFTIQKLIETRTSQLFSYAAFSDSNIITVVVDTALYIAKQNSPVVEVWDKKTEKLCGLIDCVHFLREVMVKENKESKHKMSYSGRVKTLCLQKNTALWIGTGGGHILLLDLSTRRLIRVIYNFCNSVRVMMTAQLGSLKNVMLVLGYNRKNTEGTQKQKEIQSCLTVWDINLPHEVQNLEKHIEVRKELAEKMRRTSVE
- Details: at 0.1 µM

Query: Form field: reported inhibition of O=C(Nc1n[nH]c2nc(-c3ccc(O)cc3)c(Br)cc12)C1CC1
Result: 6.34%

###

Measured inhibition by item
- Subject of test: Dual specificity protein kinase TTK (Homo sapiens) (UniProt P33981)
- Details: at 0.1 µM
- Description: GSK_PKIS: TTK mean inhibition at 0.1 uM [Nanosyn]
Numeric only. Scale: %

| Molecule smiles | Obs value |
| --- | --- |
| NC(=O)c1cc(-c2ccncc2)cc(-c2ccccc2)c1N | 8.7 |

Query: Observed inhibition on Dual specificity protein kinase TTK (Homo sapiens) (UniProt P33981) for COc1cc2ncn(-c3cc(OCc4cccs4)c(C(N)=O)s3)c2cc1OC , please.
Result: 4.76

Query: So what inhibition did COc1cc2ncn(-c3cc(OCCc4ccccc4)c(C(N)=O)s3)c2cc1OC get with Dual specificity protein kinase TTK (Homo sapiens) (UniProt P33981)?
Result: 1.17

###

The following compounds are listed with their measured inhibition values.
- Subject of test: Cyclin-dependent kinase 2 (Homo sapiens)
- Details: at 1 µM
Quick note: give the figure in %, leave out the unit.

Examples from the recorded data:
| Molecule smiles | Subject of test | Property measured | Unit | Obs value |
| --- | --- | --- | --- | --- |
| c1ccc(Oc2ccc(Nc3ncc(-c4ccccc4)o3)cc2)cc1 | Cyclin-dependent kinase 2 (Homo sapiens) | inhibition | % | 1.24 |
| CN(c1ccc(NC(=O)Nc2c(Cl)cccc2Cl)cc1)c1ccnc(Nc2cccc(CS(C)(=O)=O)c2)n1 | Cyclin-dependent kinase 2 (Homo sapiens) | inhibition | % | 12.2 |
| COc1cc2ncn(-c3cc(OCc4ccccc4C(F)(F)F)c(C(C)=O)s3)c2cc1OC | Cyclin-dependent kinase 2 (Homo sapiens) | inhibition | % | 2.63 |
| CCc1nccc2c1nc(-c1nonc1N)n2CC | Cyclin-dependent kinase 2 (Homo sapiens) | inhibition | % | 4.67 |

Query: Given the entry COc1ccc(C2=C(N3CCc4ccccc43)C(=O)NC2=O)cc1 , report its measured inhibition.
Result: 3.47

Query: Entry under review: CN(C)CCCNc1nccc(-c2c(-c3ccc(F)cc3)nn3cc(C(F)(F)F)ccc23)n1 . Reported inhibition?
Result: 3.18

Query: Endpoint output: inhibition of N#Cc1ccc(Oc2nccc(-c3c(-c4ccc(F)cc4)ncn3C3CCNCC3)n2)cc1 . Value?
Result: 1.99

Query: Look up inhibition for this compound: O=C(Nc1n[nH]c2nc(-c3ccco3)ccc12)C1CC1
Result: 6.79

###

- Subject of test: Receptor tyrosine-protein kinase erbB-4 (Homo sapiens)
- Details: at 1 µM
Property measured: inhibition
Answer by giving the amount and then stating its unit.

# example entries with known answers
| Molecule smiles | Property measured | Obs value |
| --- | --- | --- |
| CN(C)CCCNc1nccc(-c2c(-c3ccc(F)cc3)nn3cc(C(F)(F)F)ccc23)n1 | inhibition | -0.51% |
| O=C(Nc1n[nH]c2nc(-c3ccc(O)cc3)c(Br)cc12)C1CC1 | inhibition | 22% |
| CS(=O)(=O)CCNCc1ccc(-c2ccc3ncnc(Nc4ccc(OCc5ccccc5)c(Br)c4)c3c2)o1 | inhibition | 79.8% |
| CCS(=O)(=O)c1ccc(OC)c(Nc2ncc(-c3ccccc3Cl)o2)c1 | inhibition | 4.95% |

Now consider the entry below.
Query: Any idea what inhibition was measured for Cc1ccc(C(=O)NC2CCC2)cc1-c1ccc(C(=O)NCC2CC2)cc1 ?
Result: 17.7%

###

Measured inhibition by item
- Tested on: Epidermal growth factor receptor (Homo sapiens), P00533 [L858R]
- Sequence (P00533 whole entry L858R): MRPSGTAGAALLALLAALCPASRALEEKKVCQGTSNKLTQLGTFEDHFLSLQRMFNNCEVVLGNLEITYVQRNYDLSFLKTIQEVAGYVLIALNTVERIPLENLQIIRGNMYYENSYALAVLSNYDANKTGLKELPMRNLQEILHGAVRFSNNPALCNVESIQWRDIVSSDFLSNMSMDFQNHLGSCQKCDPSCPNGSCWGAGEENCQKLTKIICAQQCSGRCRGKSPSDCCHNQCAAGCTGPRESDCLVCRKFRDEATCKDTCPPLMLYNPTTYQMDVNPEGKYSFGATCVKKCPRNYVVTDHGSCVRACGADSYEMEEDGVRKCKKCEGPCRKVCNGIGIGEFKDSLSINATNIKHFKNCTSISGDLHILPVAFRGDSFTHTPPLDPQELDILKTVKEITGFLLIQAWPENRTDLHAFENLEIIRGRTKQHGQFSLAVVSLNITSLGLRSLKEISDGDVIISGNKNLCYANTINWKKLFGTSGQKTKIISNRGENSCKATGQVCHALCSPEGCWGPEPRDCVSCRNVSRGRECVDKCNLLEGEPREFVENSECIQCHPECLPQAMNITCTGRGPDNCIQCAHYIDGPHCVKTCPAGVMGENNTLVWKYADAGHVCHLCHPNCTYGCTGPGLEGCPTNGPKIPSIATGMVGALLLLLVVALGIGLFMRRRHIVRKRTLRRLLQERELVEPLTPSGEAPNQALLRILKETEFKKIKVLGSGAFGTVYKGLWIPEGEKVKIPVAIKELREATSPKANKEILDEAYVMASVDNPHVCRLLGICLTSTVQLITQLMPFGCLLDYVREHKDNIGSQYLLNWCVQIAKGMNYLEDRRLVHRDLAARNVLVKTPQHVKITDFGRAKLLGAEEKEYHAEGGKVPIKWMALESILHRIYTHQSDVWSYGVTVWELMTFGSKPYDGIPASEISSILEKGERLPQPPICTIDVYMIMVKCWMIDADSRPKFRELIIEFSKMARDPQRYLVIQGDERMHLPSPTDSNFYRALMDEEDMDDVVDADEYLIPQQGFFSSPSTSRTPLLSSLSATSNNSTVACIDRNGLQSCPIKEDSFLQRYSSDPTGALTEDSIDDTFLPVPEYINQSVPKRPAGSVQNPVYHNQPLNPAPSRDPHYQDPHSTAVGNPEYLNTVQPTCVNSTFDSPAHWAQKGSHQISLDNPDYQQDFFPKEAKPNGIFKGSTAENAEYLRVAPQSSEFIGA
- Details: at 1 µM
Write the numeric value and append its unit.

| Molecule smiles | Property measured | Obs value |
| --- | --- | --- |
| Fc1ccc(-c2c(-c3ccncc3)nc3n2CCS3)cc1 | inhibition | 22.2% |
| COc1cc(Nc2ncc(-c3ccccc3)o2)cc(OC)c1OC | inhibition | -0.27% |
| COc1cccc(-n2cnc3c(N/N=C/c4ccncc4)ncnc32)c1 | inhibition | 30.8% |

Query: Consider the compound shown here: O=C1Nc2ccc(I)cc2C1=Cc1cc(Br)c(O)c(Br)c1 What is its recorded inhibition?
Result: 2.8%

Query: Value lookup for inhibition; key = CCS(=O)(=O)c1ccc(OC)c(Nc2ncc(-c3ccccc3Cl)o2)c1
Result: 7.46%

Query: Suppose we examine the compound Cc1nnc(-c2ccc(C)c(-c3ccc(C(=O)NCc4ccc(Cl)cc4)cc3)c2)o1 ; what inhibition value has been reported?
Result: 2.71%

Query: State the recorded inhibition for this entry: CCC(=O)Nc1ccc(C)c(-c2ccc(C(=O)NCC3CC3)cc2)c1
Result: 5.47%

Query: Reported inhibition, compound O=C(Nc1n[nH]c2nc(-c3ccc(O)cc3)c(Br)cc12)C1CC1 : ____
Result: 9.71%

Query: What does the data say about its inhibition? Entry: COC(=O)Nc1nc2ccc(Sc3ccc(NC(=O)Nc4cc(C(F)(F)F)ccc4F)cc3)cc2[nH]1
Result: 2.71%

Query: Reported inhibition for CN(C)c1ccc2c(c1)/C(=C/Nc1ccc(S(N)(=O)=O)cc1)C(=O)N2 : what is it?
Result: 5.83%

###

- Tested on: Serine/threonine-protein kinase B-raf (Homo sapiens), P15056 [V600E];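 also: enzyme inhibition of the BRAF V599E mutant kinase, given as mean percent inhibition, screened within the GSK PKIS kinase inhibitor set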
- Details: at 1 µM
- Description: GSK_PKIS: BRAF (V599E mutant) mean inhibition at 1 uM [Nanosyn]
Returns Met if the recorded inhibition is greater than or equal to 2%, and Not met otherwise.

Known results for compounds:
| Molecule smiles | Class label |
| --- | --- |
| COc1cc(N2CCN(C(C)C)CC2)ccc1Nc1nc(Nc2ccc(F)cc2C(=O)NC[C@@H](O)CO)c2cc[nH]c2n1 | Met |
| COc1cc2ncn(-c3cc(OCc4cccs4)c(C(N)=O)s3)c2cc1OC | Not met |
| Cc1ccc(NC(=O)c2ccoc2)cc1-c1ccc(C(=O)NCC2CC2)cc1 | Not met |

Query: Item O=C(Nc1ccc(Oc2ccc3[nH]c(NC(=O)c4ccccc4)nc3c2)cc1)Nc1cc(C(F)(F)F)ccc1F with inhibition of 2% or above?
Result: Met

Query: Does the compound O=C(NCC1CC1)c1ccc(-c2cccc(C(=O)NC3CC3)c2)cc1 have recorded inhibition that is 2% or more?
Result: Not met

###

Listed compounds paired with reported inhibition
- Subject of test: Cytoplasmic tyrosine-protein kinase BMX (Homo sapiens) (UniProt P51813)
- Sequence (P51813 whole entry): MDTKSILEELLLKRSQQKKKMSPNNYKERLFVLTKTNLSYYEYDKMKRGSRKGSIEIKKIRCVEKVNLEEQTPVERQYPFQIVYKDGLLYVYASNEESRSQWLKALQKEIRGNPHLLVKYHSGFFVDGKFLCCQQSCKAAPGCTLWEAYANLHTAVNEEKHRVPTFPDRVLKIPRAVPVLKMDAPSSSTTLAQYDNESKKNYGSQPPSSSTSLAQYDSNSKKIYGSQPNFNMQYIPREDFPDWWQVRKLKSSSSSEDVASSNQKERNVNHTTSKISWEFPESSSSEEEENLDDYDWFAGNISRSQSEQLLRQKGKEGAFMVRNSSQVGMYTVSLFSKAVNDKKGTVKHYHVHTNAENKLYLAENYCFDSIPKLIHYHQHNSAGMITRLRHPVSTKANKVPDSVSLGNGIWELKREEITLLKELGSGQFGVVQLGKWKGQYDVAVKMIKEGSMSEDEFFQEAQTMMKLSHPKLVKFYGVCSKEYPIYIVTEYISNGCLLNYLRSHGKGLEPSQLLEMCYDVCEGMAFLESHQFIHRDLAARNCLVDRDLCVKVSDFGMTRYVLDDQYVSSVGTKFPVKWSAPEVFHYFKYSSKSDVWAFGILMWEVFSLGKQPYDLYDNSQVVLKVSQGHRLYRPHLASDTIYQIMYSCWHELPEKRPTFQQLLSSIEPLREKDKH
- Details: at 0.1 µM
- Description: GSK_PKIS: BMX mean inhibition at 0.1 uM [Nanosyn]
Your answer should be a plain number; it is taken to be in %.

Some compounds with recorded inhibition:
| Molecule smiles | Property measured | Unit | Obs value |
| --- | --- | --- | --- |
| Cc1ccc(C(=O)NC(C)C)cc1-c1ccc(C(=O)NCC2CC2)cc1 | inhibition | % | -4.33 |
| O=C(Nc1n[nH]c2nc(-c3ccc(O)cc3)c(Br)cc12)C1CC1 | inhibition | % | 3.85 |
| C[C@@H](Oc1cc(-n2cnc3ccc(OC4CCN(C)CC4)cc32)sc1C(N)=O)c1ccccc1Cl | inhibition | % | 4 |
| NC(=O)Cc1ccccc1Oc1nccc(-c2c(-c3ccc(F)cc3)ncn2C2CCNCC2)n1 | inhibition | % | 7.68 |

Query: State its inhibition on Cytoplasmic tyrosine-protein kinase BMX (Homo sapiens) (UniProt P51813): COc1cc(Nc2ncc3c(C)nc(-c4cccc(C(F)(F)F)c4)n3n2)cc(OC)c1OC
Result: -0.78

###

Below is a list of entries, each paired with its recorded inhibition value.
- Subject of test: Protein kinase C gamma type (Homo sapiens)
- Details: at 0.1 µM
Please answer using the number first and the unit second.

| Compound | Obs value |
| --- | --- |
| CS(=O)(=O)CCNCc1ccc(-c2ccc3ncnc(Nc4ccc(OCc5ccccc5)c(Br)c4)c3c2)o1 | 0.5% |
| Cc1nnc(-c2ccc(C)c(-c3ccc(C(=O)NCc4ccc(Cl)cc4)cc3)c2)o1 | 2.61% |

Query: # lookup: inhibition of COc1ccc2cc(-c3c(-c4ccncc4)nc(-c4ccc([S+](C)[O-])cc4C)n3C)ccc2c1 (stereo not given)
Result: -0.82%

Query: Need inhibition, item NC(=O)c1cc(-c2ccncc2)cc(-c2ccccc2)c1N
Result: -0.73%

Query: Suppose we examine the compound Cc1ccc(C(=O)NC(C)C)cc1-c1ccc(C(=O)NCC2CC2)cc1 ; what inhibition value has been reported?
Result: -0.67%

###

- Subject of test: Tyrosine-protein kinase Fgr (Homo sapiens) (UniProt P09769)
- Sequence (P09769 2-529 limits assumed): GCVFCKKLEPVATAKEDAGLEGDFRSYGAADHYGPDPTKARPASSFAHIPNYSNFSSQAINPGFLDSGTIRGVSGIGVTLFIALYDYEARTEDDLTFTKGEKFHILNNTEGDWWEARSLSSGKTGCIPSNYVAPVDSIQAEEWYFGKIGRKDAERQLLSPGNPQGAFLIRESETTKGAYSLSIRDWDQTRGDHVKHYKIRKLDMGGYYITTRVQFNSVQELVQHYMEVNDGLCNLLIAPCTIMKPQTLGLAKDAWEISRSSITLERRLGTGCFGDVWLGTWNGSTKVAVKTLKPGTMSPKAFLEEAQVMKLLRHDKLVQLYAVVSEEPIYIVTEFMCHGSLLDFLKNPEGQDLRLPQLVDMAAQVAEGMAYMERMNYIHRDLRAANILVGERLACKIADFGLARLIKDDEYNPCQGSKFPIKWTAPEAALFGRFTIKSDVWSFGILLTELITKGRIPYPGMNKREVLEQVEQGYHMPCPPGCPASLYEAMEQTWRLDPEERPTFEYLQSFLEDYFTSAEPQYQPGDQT
- Details: at 1 µM
Would you please tag the item satisfied when its inhibition is 10% or above, and not satisfied when it is below?

Some solved cases for reference:
| Compound | Subject of test | Class label |
| --- | --- | --- |
| O=C1NC(=O)C(c2cccc(Cl)c2)=C1Nc1ccc(Cl)c(C(=O)O)c1 | Tyrosine-protein kinase Fgr (Homo sapiens) (UniProt P09769) | not satisfied |
| COc1cccc(-n2cnc3c(N/N=C/c4ccncc4)ncnc32)c1 | Tyrosine-protein kinase Fgr (Homo sapiens) (UniProt P09769) | satisfied |
| Fc1ccc(-c2ncn(C3CCNCC3)c2-c2ccnc(Oc3ccc4c(c3)OCO4)n2)cc1 | Tyrosine-protein kinase Fgr (Homo sapiens) (UniProt P09769) | not satisfied |
| CCC(=O)Nc1ccc(C)c(-c2ccc(C(=O)NCC3CC3)cc2)c1 | Tyrosine-protein kinase Fgr (Homo sapiens) (UniProt P09769) | not satisfied |

Query: Identify whether the reported inhibition of the following compound is 10% or greater: COC(=O)Nc1nc2ccc(Sc3ccc(NC(=O)Nc4cc(C(F)(F)F)ccc4F)cc3)cc2[nH]1
Result: not satisfied

Query: Form field: inhibition at least 10%? Entry: COc1cc2ncn(-c3cc(OCc4cccs4)c(C(N)=O)s3)c2cc1OC
Result: satisfied

Query: Reported inhibition reaches at least 10% for NC(=O)c1cc(-c2ccncc2)cc(-c2ccccc2)c1N ?
Result: satisfied

Query: Dear colleague, could you confirm whether CCc1cccc(CC)c1/C=C/c1cncc(C(=O)NC)c1 has inhibition at or above 10%?
Result: satisfied

Query: Item COc1ccc2cc(-c3c(-c4ccncc4)nc(-c4ccc([S+](C)[O-])cc4C)n3C)ccc2c1 (stereo not given) with inhibition of 10% or above?
Result: not satisfied

Query: Is it the case that COc1ccc(C2=C(N3CCc4ccccc43)C(=O)NC2=O)cc1 has inhibition reaching or exceeding 10%?
Result: not satisfied
